In this section, each of the binders is paired with its reported Kd.
Biological target: T1, BMP-9 (UniProt Q9UK05 320-429)
T1 construct: also called bone morphogenetic protein 9
T1 sequence (looked up): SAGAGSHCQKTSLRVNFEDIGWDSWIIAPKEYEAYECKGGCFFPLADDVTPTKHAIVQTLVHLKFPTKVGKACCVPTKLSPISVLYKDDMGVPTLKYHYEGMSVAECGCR
Test: SPR (Biacore 8K), Fc protein captured on anti-human IgG, ligand injected
API: value field is a number in nM; no unit string.

ActRIIB-B1B7 (SEQ ID NO: 116) chimera-Fc protein (Fc fusion, Tested as chimera-Fc protein; not shown: linker (if any) and Fc domain) GRGEAETRECLFFNANWELERTNQSGLERCEGEQDKRLHCYASWRNSSGTIELVKKGCWLDDFNCYDRQECVATEENPQVYFCCCEGNFCNEKFSYFPEAGGPEVTYEPPPTAPT    18.6
ActRIIB-A6 (SEQ ID NO: 124) chimera-Fc protein (Fc fusion, Tested as chimera-Fc protein; not shown: linker (if any) and Fc domain) GRGEAETRECIYYNANWELERTNQSGLERCEGEQDKRLHCYASWRNSSGTIELVKKGCWLDDFNCYDRQECVATKDSPEVYFCCCEGNFCNERFTHLPEAGGPEVTYEPPPTAPT    0.00962

Please give the documented Kd of ActRIIA-B2B4 (SEQ ID NO: 103) chimera-Fc protein (Fc fusion, Tested as chimera-Fc protein; not shown: linker (if any) and Fc domain) GAILGRSETQECLEFNANWEKDRTNQSGLERCYGDKDKRRHCFATWKNISGTIELVKKGCWLDDINCYDRTDCVEKKDSPEVYFCCCEGNMCNEKFSYFPEMEVTQPTS 13.1

Please give the documented Kd of ActRIIA-A5 (SEQ ID NO: 107) chimera-Fc protein (Fc fusion, Tested as chimera-Fc protein; not shown: linker (if any) and Fc domain) GAILGRSETQECLFFNANWEKDRTNQTGVEPCYGDKDKRRHCFATWKNISGSIEIVKQGCWLDDFNCYDRQECVEKKDSPEVYFCCCEGNMCNEKFSYFPEMEVTQPTS 2.55
